# tgt: UniProt P20309
# Sequence (P20309 whole entry): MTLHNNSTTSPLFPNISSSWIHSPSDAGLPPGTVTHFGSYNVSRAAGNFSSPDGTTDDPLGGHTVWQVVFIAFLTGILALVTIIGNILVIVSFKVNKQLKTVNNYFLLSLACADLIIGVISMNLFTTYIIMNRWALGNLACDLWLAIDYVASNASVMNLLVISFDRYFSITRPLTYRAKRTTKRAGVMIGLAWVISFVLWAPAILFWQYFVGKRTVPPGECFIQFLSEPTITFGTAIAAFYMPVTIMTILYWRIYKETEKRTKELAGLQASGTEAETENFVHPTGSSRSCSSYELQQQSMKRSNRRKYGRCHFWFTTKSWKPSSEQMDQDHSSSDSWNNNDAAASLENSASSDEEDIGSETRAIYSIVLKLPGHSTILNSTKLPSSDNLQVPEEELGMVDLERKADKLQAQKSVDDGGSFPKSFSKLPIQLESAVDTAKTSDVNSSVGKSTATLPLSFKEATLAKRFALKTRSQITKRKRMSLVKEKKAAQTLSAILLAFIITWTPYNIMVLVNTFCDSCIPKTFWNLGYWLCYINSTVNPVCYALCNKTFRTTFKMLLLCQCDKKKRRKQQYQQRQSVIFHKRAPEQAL
# protocol_text: Antagonist activity at human muscarinic M3 receptor expressed in HEK293 cells assessed as inhibition of carbachol-induced inositol monophosphate accumulation after 1 hr by FRET assay

>  <compound>
CN(CC(=O)c1c(-c2ccccc2)[nH]c2ccccc12)CC(=O)N1CCOCC1

>  <tgt>
UniProt P20309

>  <IC50, µM>
27.5

$$$$
>  <compound>
COc1ccc(-c2[nH]c3ccccc3c2C(=O)CN(C)CC(=O)N2CCOCC2)cc1

>  <tgt>
UniProt P20309

>  <IC50, µM>
4.17

$$$$
>  <compound>
O=C(CN1CCCC(C(=O)N2CCOCC2)C1)c1c(-c2ccccc2)[nH]c2ccccc12 (centres undefined)

>  <tgt>
UniProt P20309

>  <IC50, µM>
51.3

$$$$
>  <compound>
CN(CCN1CCOCC1)CC(=O)c1c(-c2ccccc2)[nH]c2ccccc12

>  <tgt>
UniProt P20309

>  <IC50, µM>
58

$$$$
